Reference source: ChEMBL document CHEMBL3352338

Biological target: Inhibitor of nuclear factor kappa-B kinase subunit beta (Homo sapiens)
Test: Inhibition of IKKbeta (unknown origin) at 1 uM by KINOMEscanning assay relative to control; values are per cent of control
Decision: residual activity >= 30% yields TRUE, all other cases yield FALSE.

// below: answered compounds
COc1ccc(-c2c[nH]c3ncc(-c4cc(OC)c(OC)c(OC)c4)cc23)cc1OC; TRUE
COc1ccc(-c2cnc3[nH]cc(-c4ccc(OC)c(OC)c4)c3c2)cc1N; TRUE
COc1cc(-c2c[nH]c3ncc(-c4cccc(N)c4)cc23)cc(OC)c1OC; FALSE
COc1ccc(-c2c[nH]c3ncc(-c4ccc(C(=O)N5CCOCC5)c(N)c4)cc23)cc1OC; FALSE

API: above_or_equal(metric=residual activity, cutoff=30%) for item COc1ccc(-c2cnc3[nH]cc(-c4ccc(OC)c(OC)c4)c3c2)cc1OC
FALSE

---

Measured residual activity values are reported for all entries that follow.
Biological target: Fibroblast growth factor receptor 1 (Homo sapiens)
Assay: Inhibition of FGFR1 (unknown origin) at 1 uM by KINOMEscanning assay relative to control; values are per cent of control
Only the number, expressed in %, is required.

Reference set, count: 2
COc1ccc(-c2c[nH]c3ncc(-c4ccc(C(=O)N5CCOCC5)c(N)c4)cc23)cc1OC; 90
COc1ccc(-c2cnc3[nH]cc(-c4ccc(OC)c(OC)c4)c3c2)cc1OC; 89

Fill in the recorded residual activity for this molecule, with Fibroblast growth factor receptor 1 (Homo sapiens) as test system: COc1cc(-c2c[nH]c3ncc(-c4cccc(N)c4)cc23)cc(OC)c1OC
100

Fill in the recorded residual activity for this molecule, with Fibroblast growth factor receptor 1 (Homo sapiens) as test system: COc1ccc(-c2cnc3[nH]cc(-c4ccc(OC)c(OC)c4)c3c2)cc1N
92

Fill in the recorded residual activity for this molecule, with Fibroblast growth factor receptor 1 (Homo sapiens) as test system: COc1ccc(-c2c[nH]c3ncc(-c4cc(OC)c(OC)c(OC)c4)cc23)cc1OC
84

---

Molecular target: ALK tyrosine kinase receptor (Homo sapiens)
Test: Inhibition of ALK (unknown origin) at 1 uM by KINOMEscanning assay relative to control; values are per cent of control
recorded-endpoint: residual activity (%)
Only the number, expressed in %, is required.

COc1ccc(-c2c[nH]c3ncc(-c4cc(OC)c(OC)c(OC)c4)cc23)cc1OC; 40
COc1cc(-c2c[nH]c3ncc(-c4cccc(N)c4)cc23)cc(OC)c1OC; 33
COc1ccc(-c2cnc3[nH]cc(-c4ccc(OC)c(OC)c4)c3c2)cc1N; 51

I'd like to know its residual activity. The molecule in question is COc1ccc(-c2cnc3[nH]cc(-c4ccc(OC)c(OC)c4)c3c2)cc1OC
43

I'd like to know its residual activity. The molecule in question is COc1ccc(-c2c[nH]c3ncc(-c4ccc(C(=O)N5CCOCC5)c(N)c4)cc23)cc1OC
76

---

Target: Insulin-like growth factor 1 receptor (Homo sapiens) (UniProt P08069)
Sequence (P08069 31-736 limits assumed): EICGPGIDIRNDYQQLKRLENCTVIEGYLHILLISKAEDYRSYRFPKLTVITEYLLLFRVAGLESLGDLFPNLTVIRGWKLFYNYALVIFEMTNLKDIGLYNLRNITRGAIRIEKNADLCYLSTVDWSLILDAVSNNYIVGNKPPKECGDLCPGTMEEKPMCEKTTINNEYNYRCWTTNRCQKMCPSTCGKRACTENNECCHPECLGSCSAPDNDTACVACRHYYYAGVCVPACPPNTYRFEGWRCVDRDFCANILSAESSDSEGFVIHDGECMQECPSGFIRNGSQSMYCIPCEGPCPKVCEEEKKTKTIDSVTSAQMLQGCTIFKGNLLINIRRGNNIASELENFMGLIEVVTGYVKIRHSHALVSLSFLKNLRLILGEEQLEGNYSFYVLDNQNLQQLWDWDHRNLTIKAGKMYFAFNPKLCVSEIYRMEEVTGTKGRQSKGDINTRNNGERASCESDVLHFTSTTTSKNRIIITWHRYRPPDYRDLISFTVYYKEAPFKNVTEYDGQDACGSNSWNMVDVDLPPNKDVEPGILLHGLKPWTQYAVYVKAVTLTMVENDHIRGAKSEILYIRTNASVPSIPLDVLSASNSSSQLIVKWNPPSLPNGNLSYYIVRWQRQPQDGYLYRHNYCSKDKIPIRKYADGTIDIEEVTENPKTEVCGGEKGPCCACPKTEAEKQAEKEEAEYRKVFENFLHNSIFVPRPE
Sequence (P08069 741-1367 limits assumed): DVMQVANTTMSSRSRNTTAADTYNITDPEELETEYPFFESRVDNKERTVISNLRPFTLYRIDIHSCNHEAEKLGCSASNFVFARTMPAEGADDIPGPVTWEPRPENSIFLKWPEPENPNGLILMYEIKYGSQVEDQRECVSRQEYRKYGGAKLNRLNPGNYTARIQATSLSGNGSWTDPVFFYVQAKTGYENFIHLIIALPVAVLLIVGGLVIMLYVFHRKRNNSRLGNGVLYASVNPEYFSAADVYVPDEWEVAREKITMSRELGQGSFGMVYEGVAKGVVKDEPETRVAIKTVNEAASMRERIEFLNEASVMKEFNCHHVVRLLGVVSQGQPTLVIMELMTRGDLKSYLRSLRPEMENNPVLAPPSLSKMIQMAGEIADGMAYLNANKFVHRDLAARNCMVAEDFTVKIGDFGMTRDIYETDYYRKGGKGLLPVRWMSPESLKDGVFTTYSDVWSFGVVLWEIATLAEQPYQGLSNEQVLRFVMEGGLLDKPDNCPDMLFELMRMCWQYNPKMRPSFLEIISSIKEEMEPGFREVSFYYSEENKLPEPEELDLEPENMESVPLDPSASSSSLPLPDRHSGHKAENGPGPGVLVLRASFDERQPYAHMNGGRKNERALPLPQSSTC
Experiment: Inhibition of IGF1R (unknown origin) at 1 uM by KINOMEscanning assay relative to control; values are per cent of control
recorded-endpoint: residual activity (%)
Only the number, expressed in %, is required.

Fill in the recorded residual activity for this compound, with Insulin-like growth factor 1 receptor (Homo sapiens) (UniProt P08069) as test system: COc1ccc(-c2c[nH]c3ncc(-c4cc(OC)c(OC)c(OC)c4)cc23)cc1OC
91

Fill in the recorded residual activity for this compound, with Insulin-like growth factor 1 receptor (Homo sapiens) (UniProt P08069) as test system: COc1ccc(-c2cnc3[nH]cc(-c4ccc(OC)c(OC)c4)c3c2)cc1OC
100

Fill in the recorded residual activity for this compound, with Insulin-like growth factor 1 receptor (Homo sapiens) (UniProt P08069) as test system: COc1ccc(-c2c[nH]c3ncc(-c4ccc(C(=O)N5CCOCC5)c(N)c4)cc23)cc1OC
96

Fill in the recorded residual activity for this compound, with Insulin-like growth factor 1 receptor (Homo sapiens) (UniProt P08069) as test system: COc1ccc(-c2cnc3[nH]cc(-c4ccc(OC)c(OC)c4)c3c2)cc1N
79

Fill in the recorded residual activity for this compound, with Insulin-like growth factor 1 receptor (Homo sapiens) (UniProt P08069) as test system: COc1cc(-c2c[nH]c3ncc(-c4cccc(N)c4)cc23)cc(OC)c1OC
100
